experiment_summary: qHTS for Inhibitors of human tyrosyl-DNA phosphodiesterase 1 (TDP1): qHTS in cells in absence of CPT; note: nearly all actives have a fitted effect of over 55% in size
assay_conditions: DT40 Tdp1-/- hTDP1 cells, no CPT, ATP luminescence, 48 h
Procedure: Human tyrosyl-DNA phosphodiesterase 1 (TDP1) is a novel repair gene, and we propose to use it as a new target for anticancer drug development. […] For the primary screen, Tdp1-/-;hTDP1 cells will be exposed to small molecules in the presence or absence of CPT, and their growth kinetics will be evaluated after 48 hours by measuring ATP activity. […] The hit compounds will then be evaluated in the presence or absence of CPT using Tdp1-/- cells. […]
In all, about 420,000 compounds went through this assay and about 64,000 (15%) were called active. Another 27% or so got no clear call; they are omitted. Calls come from the whole dose curve; as a rule, active = well fitted inhibition curve with a large enough effect; inconclusive = small, poorly fitted or top-dose-only effect; inactive = flat fitted curve, though single readings scatter. These entries were drawn from the full list.
Tick one outcome: active, inactive

q: # fetch the recorded call for CCCCn1c(SCC(=O)NCCc2ccc(OC)c(OC)c2)nc2c1c(=O)n(C)c(=O)n2C here
a: inactive

q: Check the results log: what was the call for COc1ccc(/C(C)=N/N2CCOCC2)c(O)c1 ?
a: inactive

q: # outcome recorded in this test, key = CCOc1ccc(NC(=O)CC2NCCNC2=O)cc1 (centres undefined)
a: inactive

q: Please share the test call associated with CCn1c(NCCc2ccc(OC)c(OC)c2)nc2c1c(=O)n(C)c(=O)n2C .
a: active

q: // return assay outcome for CN1CCN(C2(CNC(=O)COc3ccc(C(C)(C)C)cc3)CCCCC2)CC1
a: active

q: For this compound, state the assay outcome: CSc1ncnc2c1ncn2CCCNCc1ccco1
a: inactive

q: Can you look up the reported call for O=C1CCCCN1CCCC(=O)N1CCCC(Nc2ccc(F)cc2)C1 (centres undefined) for me?
a: inactive

q: Test call, this compound: CCN(CC)C(=O)c1ccc(O)c(OC)c1
a: inactive

q: Recorded call for CCN1CCN(c2cc(C)c3cc(NC(=O)c4cc(Cl)ccc4OC)ccc3n2)CC1 ?
a: active

q: I'd appreciate the recorded outcome for COCOc1cccc(CN2CCC(C)(Oc3ccc(SC)cc3)C2)c1 (centres undefined) from this test.
a: active

q: How was CCN(CC)CCNS(=O)(=O)c1ccc(/C=C/C(=O)O)cc1 classified in this test?
a: inactive

q: What was the test verdict on Cc1cc(C)cc(OCc2nnc(SCC(=O)OC3CCCCC3)o2)c1 ?
a: inactive

q: Lab log entry: Cc1cccc(C)c1NC(=O)C1(N(C(=O)c2ccccn2)c2ccc(O)cc2)CCCCC1 — outcome as called in the assay?
a: inactive

q: Record request — test call for COc1ccnc2c1c(=O)n(Cc1cccc(F)c1)c(=O)n2C
a: inactive

q: Could you kindly confirm the outcome this assay logged for Cc1ccc(S(=O)(=O)/N=C(\N)c2ccc(F)cc2)cc1 ?
a: inactive

q: How was Cc1nc2ccc(S(=O)(=O)NCC(=O)O)cc2s1 classified in this test?
a: inactive

q: Please indicate how the test categorized Cn1c(=O)c2c(nc(NCCc3ccccc3)n2Cc2ccccc2)n(C)c1=O .
a: active

q: Give the logged outcome of this assay for the following compound: CCN(CC)CCNC(=O)CN1N=C(c2ccc(OC)cc2)CCC1=O
a: inactive

q: Would you mind telling me which call this test gave Cc1ccc(C(=O)Nc2nc(N)n(-c3ccccc3)n2)cc1 ?
a: inactive

q: Can you look up the reported call for CCOC(=O)C(C)Oc1cccc2c(=O)n(CC(=O)N3CCc4ccccc43)ccc12 (centres undefined) for me?
a: inactive

q: Test call, this compound: COC(=O)CC1=NN(c2ccccc2)C(=O)C1
a: inactive

q: Please let me know the test result on file for C#CCOc1ccc(/C=C2/C(=O)NN(c3ccccc3)C2=O)cc1OC .
a: inactive

q: What did the test return for O=C(Nc1ccn(Cc2ccc(F)cc2)n1)c1ccncc1 ?
a: active

q: Short answer needed: outcome of this test for CCCCCCOc1ccc(OC(=O)c2cccnc2)cc1 ?
a: active

q: Entry CC/C=C/C(=O)N1CC2(CC(c3cccc(NC(=O)CC)c3)=NO2)C[C@H]1C(N)=O (some centres undefined) : call = ?
a: inactive

q: I would be grateful if you could indicate the recorded call for COn1c(=O)c(=O)n(OC)c2ccccc21 .
a: inactive

q: Fill in: this test's call for Cc1c(NC(=O)CSCc2ccccc2)cccc1C(=O)O is ___
a: inactive

q: Per the records of this test, what outcome belongs to Cc1ccc(C(=O)Nc2nc(-c3ccccc3)ns2)cc1 ?
a: inactive

q: For NS(=O)(=O)c1cc2c(cc1Cl)NC(C(Cl)Cl)NS2(=O)=O (centres undefined) , what call appears in the results of this test?
a: inactive

q: For this compound, state the assay outcome: O=c1cc(COc2cccc(C(F)(F)F)c2)nc2sc3c(n12)CCCC3
a: inactive

q: What was the test verdict on CC1(C)CC(CCC(=O)Nc2ccccc2Cl)C(=O)O1 (centres undefined) ?
a: inactive

q: Tell me the assay call for COc1ccc(CCN2CNc3c(c(=O)n(C)c(=O)n3C)C2)cc1OC please.
a: inactive

q: // outcome(item) with item = Cc1cccc(NC(=O)CN2CCN(CC(=O)NCC3(N4CCCCC4)CCCCC3)CC2)c1C
a: inactive

q: How was COc1ccc(S(=O)(=O)N2CCN(CC(=O)NCC3(N4CCOCC4)CCCCC3)CC2)cc1 classified in this test?
a: inactive

q: Could you kindly confirm the outcome this assay logged for CCC(CC)c1nn2cc(-c3ccccc3)nc2s1 ?
a: inactive

q: Query: recorded result category for Cc1ccc(-c2cc(=O)c3ccc(F)cc3[nH]2)cc1 in this test
a: active

q: Name the outcome recorded for Cn1c(=O)c2c(nc(NCCc3ccccc3)n2Cc2ccccc2Br)n(C)c1=O in the assay.
a: inactive

q: GET /call?item= O=C(Nc1ccccc1Cl)N1CCC(CN2CCCCC2)CC1 returns the recorded outcome of this test.
a: inactive

q: Recorded call for COc1cc(/C=C2/C(=O)ON=C2C)ccc1OCc1cccc(F)c1 ?
a: active

q: Hi, sorry to bother you, what did the test record for O=C(c1cccnc1)N1CCN(S(=O)(=O)c2cccs2)CC1 ?
a: inactive

q: Test call, this compound: COC(=O)CC1Oc2ccccc2-n2cc(-c3ccccc3)nc21 (centres undefined)
a: active

q: Please indicate how the test categorized CC1O[C@H](OC2C(COC3OC(CO)C(O)[C@H](O)C3O)OC(OC3CC[C@]4(C)C(CC[C@@]5(C)[C@@H]4C=C[C@]46OC[C@@]7(CCC(C)(C)C[C@H]74)C(O)C[C@@]56C)C3(C)C)C(O)C2O)C(O)C(O)C1O (some centres undefined) .
a: inactive

q: Returns: the outcome recorded for CCCCNc1nc2c(c(=O)n(C)c(=O)n2C)n1Cc1cccc(OC)c1 in this assay.
a: active

q: What was the test verdict on O=c1[nH]c(-c2ccccc2)c(-c2ccccc2)[nH]1 ?
a: inactive

---

experiment_summary: qHTS for Inhibitors of human tyrosyl-DNA phosphodiesterase 1 (TDP1): qHTS in cells in absence of CPT; note: nearly all actives have a fitted effect of over 55% in size
assay_conditions: DT40 Tdp1-/- hTDP1 cells, no CPT, ATP luminescence, 48 h
In all, about 420,000 compounds went through this assay and about 64,000 (15%) were called active. Roughly 27% stayed inconclusive and do not appear here. Calls follow the shape of the dose curve; as a rule, active = well fitted inhibition curve with a large enough effect; inconclusive = small, poorly fitted or top-dose-only effect; inactive = flat fitted curve, though single readings scatter. Only a sample is shown.
Choose the fitting class; nothing outside active, inactive is accepted.

q: Dear colleague, could you share the recorded outcome for O=C(N/N=C/c1ccccn1)c1ccc(S(=O)(=O)N2CCCCCC2)cc1 when you have a moment?
a: inactive

q: Call for entry O=C(NC(=O)c1ccccc1)Nc1ccccc1O :
a: inactive

q: Lab log entry: O=C(CS(=O)(=O)c1ccc(C(F)(F)F)cn1)NNC(=O)c1ccccc1 — outcome as called in the assay?
a: inactive

q: For this compound, state the assay outcome: COc1ccc(C(C(=O)NC2CCCCC2)N(C(=O)CCl)c2ccccc2Cl)cc1 (stereo not given)
a: active

q: Hey, what did the test say about Cc1ccccc1N(C(=O)CNC(=O)c1cccs1)C(C(=O)NC1CCCC1)c1ccncc1 (stereo not given) ?
a: inactive

---

experiment_summary: qHTS for Inhibitors of human tyrosyl-DNA phosphodiesterase 1 (TDP1): qHTS in cells in absence of CPT; note: nearly all actives have a fitted effect of over 55% in size
assay_conditions: DT40 Tdp1-/- hTDP1 cells, no CPT, ATP luminescence, 48 h
Among all 420,000 compounds or so, about 64,000 (15%) were called active. Inconclusive results (about 27%) are left out. The call rests on the fitted dose curve; in most records, active means well fitted inhibition curve with a large enough effect; inconclusive means small, poorly fitted or top-dose-only effect; inactive means flat fitted curve, though single readings scatter. A selection follows.
API: response.call in active, inactive

q: Call for entry Cc1cc(C)cc(NC(=O)NCc2ccccn2)c1 :
a: inactive

q: Outcome logged for CN(C)c1ccc(CNC23CN4CN(CN(C4)C2)C3)cc1 in this assay:
a: active

q: Called result for Cc1nn(-c2ccccc2)c(NC(=O)c2cccs2)c(-c2ccc(Cl)cc2)c1=O
a: inactive

q: I would be grateful if you could indicate the recorded call for CCOC(=O)N1CCN(C(=O)CSc2nc(=O)n3cccc(C)c3n2)CC1 .
a: inactive

q: I'd appreciate the recorded outcome for Cc1[nH]n(-c2cccc(Cl)c2)c(=O)c1-c1ccc(Cl)cc1 from this test.
a: active

q: Identify the outcome logged in this assay for the compound shown: CC1=NN(c2cccc(Cl)c2)C(=O)C12CC(C)=C(C)CS2 (stereo unspecified)
a: inactive
